- assay_method_text: recombinant UMI read abundance after kanamycin selection (control-corrected) (log10(CPM+1)); higher = more efficient recombination; extreme values may be limits of the assay; sequences stand for … in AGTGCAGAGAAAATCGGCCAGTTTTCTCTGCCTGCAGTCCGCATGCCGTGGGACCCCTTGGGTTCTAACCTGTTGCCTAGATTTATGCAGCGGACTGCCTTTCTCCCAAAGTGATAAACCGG…AGGTTGGTTTCACT; site = the 11-nt donor
quantity: recombinant UMI read abundance (log10)

INSERT INTO measurements (sequence_content, number) VALUES
  ('TTGCTAGCATGGACCGGTTTTCCCGGTAATCCGTATTTGAA (site TTGCTAGCTTT)', 0.252),
  ('GCGAGAACATGGACCGGTTTTCCCGGTAATCCGTATTTGCT (site GCGAGAACTAG)', 2.24),
  ('CGTAGTGCATGGACCGGTTTTCCCGGTAATCCGTATTTGTT (site CGTAGTGCTAA)', 0.84),
  ('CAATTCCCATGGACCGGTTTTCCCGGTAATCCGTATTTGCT (site CATTTCCCTAG)', 0),
  ('CCGTTTACATGGACCGGTTTTCCCGGTAATCCGTATTTGGT (site CCGTTTACTAA)', 0.00739),
  ('AGCGATACATGGACCGGTTTTCCCGGTAATCCGTATTTGAA (site AGCGATACTTT)', 1.65),
  ('AGCTCAGCATGGACCGGTTTTCCCGGTAATCCGTATTTGGG (site AGCCCAGCTCC)', 0.263),
  ('ACCGTATCATGGACCGGTTTTCCCGGTAATCCGTATTTGGT (site ACCGTATCTAC)', 1.32),
  ('CCCCTATCATGGACCGGTTTTCCCGGTAATCCGTATTTGTC (site CCCGTATCTGA)', 0),
  ('GCTACTGCATGGACCGGTTTTCCCGGTAATCCGTATTTGCT (site GCTACTGCTCG)', 0.00284),
  ('GGTGTGCCATGGACCGGTTTTCCCGGTAATCCGTATTTGAC (site GGTGTGCCTGT)', 0),
  ('CGGAACCCATGGACCGGTTTTCCCGGTAATCCGTATTTGTG (site CGGAACCCTCA)', 1.13),
  ('GCCATATCATGGACCGGTTTTCCCGGTAATCCGTATTTGTC (site ACCATATCTGA)', 1.74),
  ('GAAGGTACATGGACCGGTTTTCCCGGTAATCCGTATTTGAC (site GGAGGTACTGT)', 0),
  ('GTGGAGGCATGGACCGGTTTTCCCGGTAATCCGTATTTGTC (site GTGGAGGCTGA)', 2.67),
  ('CAATGCTCATGGACCGGTTTTCCCGGTAATCCGTATTTGAT (site CAATGCTCTTT)', 0.993),
  ('AACCTTCCATGGACCGGTTTTCCCGGTAATCCGTATTTGAT (site AACCCTCCTAT)', 0.0165),
  ('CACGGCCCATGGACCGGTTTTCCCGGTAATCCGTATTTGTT (site CACAGCCCTAA)', 0.215);

---

- assay_method_text: recombinant barcode read abundance after kanamycin selection (control-corrected) (log10(CPM+1)); higher = more efficient recombination; sequences stand for … in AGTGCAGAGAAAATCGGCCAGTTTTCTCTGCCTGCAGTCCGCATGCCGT…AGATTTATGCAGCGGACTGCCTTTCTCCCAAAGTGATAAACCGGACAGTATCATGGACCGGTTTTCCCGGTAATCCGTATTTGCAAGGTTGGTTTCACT; site = the 11-nt target
Rule: recombinant barcode read abundance (log10) under 0.7 gives False, otherwise True.

INSERT INTO assay_data (sequence_content, group_label) VALUES
  ('GGACGGCCTTGGGTTCTAACCTGTTGCCT (site GGACGCCCTAG)', 'False'),
  ('CGGATGGCTTGGGTTCTAACCTGTTGCCT (site CGGATTGCTAG)', 'False'),
  ('TCACACACTTGGGTTCTAACCTGTTGCCT (site TCACACACTAG)', 'True'),
  ('AGTTGTCCTTGGGTTCTAACCTGTTGCGT (site AGTTGTCCTAC)', 'True'),
  ('CCACCGCCTTGGGTTCTAACCTGTTGCCT (site TCACCGCCTAG)', 'False'),
  ('CGTCGGACTTGGGTTCTAACCTGTTGCAG (site CGTCGGACTCT)', 'False'),
  ('TTAGAGGCTTGGGTTCTAACCTGTTGCCT (site TTAGAGGCTAG)', 'True'),
  ('GTGCAGACTTGGGTTCTAACCTGTTGCCT (site GTGCAGACTAG)', 'True');

---

Listing: recombinant UMI read abundance (log10) of selected sequences
- assay_method_text: recombinant UMI read abundance after kanamycin selection (control-corrected) (log10(CPM+1)); higher = more efficient recombination; extreme values may be limits of the assay; sequences stand for … in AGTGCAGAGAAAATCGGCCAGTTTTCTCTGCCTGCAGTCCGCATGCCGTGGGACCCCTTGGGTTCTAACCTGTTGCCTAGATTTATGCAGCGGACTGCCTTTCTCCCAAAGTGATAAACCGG…AGGTTGGTTTCACT; site = the 11-nt donor
quantity: recombinant UMI read abundance (log10)

INSERT INTO results (sequence_content, number) VALUES
  ('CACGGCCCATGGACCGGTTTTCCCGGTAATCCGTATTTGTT (site CACGGCCCTGA)', 1.16),
  ('CACTTGACATGGACCGGTTTTCCCGGTAATCCGTATTTGGA (site CACTTGTCTTC)', 0.138),
  ('CCAGTGACATGGACCGGTTTTCCCGGTAATCCGTATTTGGT (site CCAGTGACTAC)', 0),
  ('CTAATATCATGGACCGGTTTTCCCGGTAATCCGTATTTGTC (site CTAATATCTGA)', 2.49),
  ('CACTTCTCATGGACCGGTTTTCCCGGTAATCCGTATTTGCC (site CACTTCTCTGG)', 2.12),
  ('CCCAACACATGGACCGGTTTTCCCGGTAATCCGTATTTGTA (site CCCAACACTTA)', 1.35),
  ('CACCGATCATGGACCGGTTTTCCCGGTAATCCGTATTTGCC (site CACCGATCTGG)', 2.44),
  ('AGCCATTCATGGACCGGTTTTCCCGGTAATCCGTATTTGAC (site AGCCGTTCTGT)', 0),
  ('TATTTGGCATGGACCGGTTTTCCCGGTAATCCGTATTTGGG (site TATTTGGCTCC)', 0.0427),
  ('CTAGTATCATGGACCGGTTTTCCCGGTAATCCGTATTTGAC (site CTCGTATCTGT)', 0.0723),
  ('TGAAGCACATGGACCGGTTTTCCCGGTAATCCGTATTTGCG (site TGAAGCACTCG)', 1.18),
  ('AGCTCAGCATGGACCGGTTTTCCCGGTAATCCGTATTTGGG (site ACCTCAGCTCC)', 0.026),
  ('CCTAAAGCATGGACCGGTTTTCCCGGTAATCCGTATTTGAT (site CCTAATGCTAT)', 0.00544),
  ('ACGAAGCCATGGACCGGTTTTCCCGGTAATCCGTATTTGGG (site CCGAAGCCTCC)', 0.00571),
  ('TGTAAACCATGGACCGGTTTTCCCGGTAATCCGTATTTGAC (site TGTATACCTGT)', 0),
  ('TTTGGGGCATGGACCGGTTTTCCCGGTAATCCGTATTTGCT (site TTTGCGGCTAG)', 0.00428),
  ('AGTTATGCATGGACCGGTTTTCCCGGTAATCCGTATTTGGA (site ACTTATGCTTC)', 0.849),
  ('TATGTAACATGGACCGGTTTTCCCGGTAATCCGTATTTGCT (site GATGTAACTAG)', 1.67),
  ('AATGAGTCATGGACCGGTTTTCCCGGTAATCCGTATTTGAC (site AATGGGTCTGT)', 0),
  ('GGCTTAACATGGACCGGTTTTCCCGGTAATCCGTATTTGTC (site GGCTTAACTGA)', 0.732),
  ('AAAGCTCCATGGACCGGTTTTCCCGGTAATCCGTATTTGCG (site AAAGCTCCTCG)', 0.472),
  ('CCCACCGCATGGACCGGTTTTCCCGGTAATCCGTATTTGCG (site ACCACCGCTCG)', 0.0127),
  ('CCCAGATCATGGACCGGTTTTCCCGGTAATCCGTATTTGTC (site CCCACATCTGA)', 0),
  ('ACTAGAACATGGACCGGTTTTCCCGGTAATCCGTATTTGGG (site ACTAGAACTCG)', 0.00448),
  ('CACGACACATGGACCGGTTTTCCCGGTAATCCGTATTTGTG (site CACGACACTCA)', 1.41),
  ('GTGGAGGCATGGACCGGTTTTCCCGGTAATCCGTATTTGCG (site GTGGAGGCTCC)', 0.392),
  ('TCAGAGACATGGACCGGTTTTCCCGGTAATCCGTATTTGAG (site TCAGAGACTCT)', 1.82),
  ('CATTGCTCATGGACCGGTTTTCCCGGTAATCCGTATTTGAA (site CACTGCTCTTT)', 0.00354),
  ('TCGTATGCATGGACCGGTTTTCCCGGTAATCCGTATTTGAC (site TCGTATGCTGT)', 0.101),
  ('CAGGTTGCATGGACCGGTTTTCCCGGTAATCCGTATTTGGC (site CAGGTTGCTGC)', 2.08),
  ('GTTAGCACATGGACCGGTTTTCCCGGTAATCCGTATTTGGC (site GTTAGGACTGC)', 0.0382),
  ('GAGAATCCATGGACCGGTTTTCCCGGTAATCCGTATTTGTT (site GAGAATCCTAA)', 0),
  ('CGTTAGACATGGACCGGTTTTCCCGGTAATCCGTATTTGCG (site CGTTAGACTCT)', 0.911),
  ('GTTCTCTCATGGACCGGTTTTCCCGGTAATCCGTATTTGTA (site CTTCTCTCTTA)', 0.989),
  ('CCCGGTCCATGGACCGGTTTTCCCGGTAATCCGTATTTGCG (site CCCGGTCCTCG)', 0),
  ('GATATATCATGGACCGGTTTTCCCGGTAATCCGTATTTGCG (site GATATATCTCG)', 1.42);

Data provenance: the supplement of paper PMC11208160
